biological target: AP2-associated protein kinase 1 (Homo sapiens); test: Inhibition of AAK1 (unknown origin) assessed as at 1 uM relative to control; parameters: scale not given: the % may be the effect or the level left
Mark 1 (yes) for Activity under 40%, 0 (no) if at or over.

> print(dat)
                                   molecule  classassignment
1  O=C(Nc1n[nH]c2cc(-c3cccc(NS(=O)(=O)CCC(F)(F)F)c3)ccc12)C1CC1          1 (yes)
2  CC1CC1C(=O)Nc1n[nH]c2cc(-c3cccc(NS(=O)(=O)C4CC4)c3)ccc12 (centres undefined)           0 (no)
3  CCN(C)S(=O)(=O)Nc1cccc(-c2ccc3c(NC(=O)C4CC4C)n[nH]c3c2)c1 (centres undefined)          1 (yes)
4  O=C(Nc1n[nH]c2cc(-c3cccc(NS(=O)(=O)CC(F)(F)F)c3)ccc12)C1CC1           0 (no)
5  O=C(Nc1n[nH]c2cc(-c3cccc(NS(=O)(=O)c4cccc(F)c4)c3)ccc12)C1CC1          1 (yes)
6  O=C(Nc1n[nH]c2cc(-c3cccc(NS(=O)(=O)c4ccccc4F)c3)ccc12)C1CC1          1 (yes)
7  O=C(Nc1n[nH]c2cc(-c3cccc(NS(=O)(=O)c4ccc(F)cc4)c3)ccc12)C1CC1          1 (yes)
8  CCN(CC)S(=O)(=O)Nc1cccc(-c2ccc3c(NC(=O)C4CC4C)n[nH]c3c2)c1 (centres undefined)          1 (yes)
